- system tested: Kappa-type opioid receptor (Homo sapiens) (UniProt P41145)
- Sequence (P41145 whole entry, looked up): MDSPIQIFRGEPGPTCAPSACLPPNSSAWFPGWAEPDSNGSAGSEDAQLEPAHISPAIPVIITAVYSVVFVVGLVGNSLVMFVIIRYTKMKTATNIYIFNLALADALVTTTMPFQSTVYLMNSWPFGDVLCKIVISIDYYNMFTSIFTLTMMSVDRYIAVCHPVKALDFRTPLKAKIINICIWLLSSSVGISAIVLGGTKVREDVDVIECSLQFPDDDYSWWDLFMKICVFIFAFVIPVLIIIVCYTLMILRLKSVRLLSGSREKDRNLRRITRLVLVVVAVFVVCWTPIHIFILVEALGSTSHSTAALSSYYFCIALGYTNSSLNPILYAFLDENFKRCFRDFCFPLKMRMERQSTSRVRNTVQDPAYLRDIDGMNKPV
- procedure details: kappa opioid receptor blockers – cell-based, luminescence, uHTS (AID 1778)
- assay setup: KOR beta-arrestin recruitment, antagonist mode, hits give high values; at 10 µM unless noted
Screen size: about 290,000 compounds; about 260 (0.09%) were called active. The full list was thinned out, with actives kept by preference. Results with a measured potency or affinity are listed apart.
For each of the compounds below, state its inhibition.
Your answer should be a plain number; it is taken to be in %.

Problem: Give reported inhibition value for COc1ccc(C)cc1NC(=O)CN(c1ccc(F)cc1)S(C)(=O)=O
Solution: -4.9

Problem: Annotate the compound COc1cc(/C=C2\SC(=S)N(NC(=O)c3ccc(O)cc3)C2=O)ccc1O with its measured inhibition.
Solution: 47.2

Problem: For the compound CCOc1ccc(C(=O)NC2CC3CCCC(C2)N3CC(C)C)cc1 (stereo unspecified) , give its reported inhibition.
Solution: -39

Problem: Consider the compound CCCN1C2CCCC1CC(NC(=O)c1ccccc1OCC)C2 (stereo unspecified) and give its recorded inhibition.
Solution: 12

Problem: Name the recorded inhibition of the compound listed here: CC(=O)c1cc(-c2ccccc2)[nH]c1N1CCOCC1
Solution: -10.8

Problem: Return inhibition for the following compound: CCOc1ccc(-c2nc(C#N)c(NCC3CCCO3)o2)cc1 (stereo unspecified)
Solution: 10.1

Problem: Using the record for COc1ccc(CNC(=O)Nc2cccc3ccccc23)cc1 , state its measured inhibition.
Solution: 7.6

Problem: Identify measured inhibition associated with CCOc1cc(/C=C2\SC(=S)N(Nc3ccccc3)C2=O)ccc1O
Solution: 9

Problem: Give the measured inhibition for CCOc1ccccc1C(=O)NC1CC2CCCC(C1)N2Cc1ccccc1 (stereo unspecified)
Solution: 5.8

Problem: Please report the measured inhibition for O=C(NC1CC2CCCC(C1)N2Cc1ccccc1)c1cccc(F)c1 (stereo unspecified)
Solution: 34.5

Problem: Please report the measured inhibition for CCOc1ccc(/C=C2\SC(=S)N(C(C(=O)O)c3ccccc3)C2=O)cc1OC (stereo unspecified)
Solution: 9.7

* * *

I'd appreciate it if you could supply inhibition values for the items below.
- system tested: Kappa-type opioid receptor (Homo sapiens)
- procedure details: kappa opioid receptor blockers – cell-based, luminescence, uHTS (AID 1778)
- assay setup: KOR beta-arrestin recruitment, antagonist mode, hits give high values; at 10 µM unless noted
Hit rate of the full screen: of about 290,000 compounds, about 260 (0.09%) were called active. The list comes from a sample in which actives are over-represented; it also holds close analogues and randomly drawn compounds. Entries with a potency or affinity are not part of this list.

Problem: Identify inhibition associated with the molecule C/C(=N\NC(=O)C(c1ccccc1)c1ccccc1)c1ccc(O)cc1
Solution: -26.8% [at 20 µM] (inactive)

Problem: Give the value of inhibition reported for the following: O=C(NNC(=O)C12CC3CC(CC(C3)C1)C2)c1cnccn1
Solution: 27.4% (inactive)

Problem: Recall and state the measured inhibition for CC(C)C(=O)NNC(=O)c1ccccn1 .
Solution: 13.4% (inactive)

Problem: For the molecule COc1ccc(N2CCN(C(C)C(=O)N3CC(C)OC(C)C3)CC2)cc1 (stereo unspecified) , report inhibition.
Solution: -2.4% (inactive)

Problem: // fetch inhibition given entry O=C(NNc1ccccn1)C(c1ccccc1)c1ccccc1
Solution: 11.4% (inactive)

Problem: Tell us which inhibition value is on record for CCCCCC(=O)N/N=C(\C)c1ccccn1
Solution: 10.5% (inactive)

Problem: Annotate the molecule C/C(=N\NC(=O)C(c1ccccc1)c1ccccc1)c1ccccn1 with its measured inhibition.
Solution: 81.1% (active)

Problem: Supply measured inhibition of CCN1CCN(C(=S)c2ccc(Cl)cc2)CC1 in your reply.
Solution: 12.5% (inactive)

Problem: Output measured inhibition for this item: CC(C(=O)O/N=C(\N)c1ccccn1)c1ccc([N+](=O)[O-])cc1 (stereo unspecified)
Solution: -1.4% (inactive)

Problem: Return the recorded inhibition value; entry: COc1ccc(N(CC(=O)Nc2ccc(S(=O)(=O)N3CCOCC3)cc2)S(=O)(=O)c2ccccc2)cc1
Solution: -0.6% (inactive)

Problem: Recall and state the measured inhibition for C/C(=N\NC(=O)c1ccccn1)C12CC3CC(CC(C3)C1)C2 .
Solution: -17.6% (inactive)

* * *

- system tested: Kappa-type opioid receptor (Homo sapiens)
- procedure details: kappa opioid receptor blockers – cell-based, luminescence, uHTS (AID 1778)
- assay setup: KOR beta-arrestin recruitment, antagonist mode; at 10 µM unless noted
The campaign covered roughly 290,000 compounds. About 260 (0.09%) were called active. Rule as the data show it: active = inhibition above about 50%; inactive = the rest. The sample holds actives, similar compounds and a random draw of the others, so the mix is not that of the screen. Potency and affinity values are given separately.
Select the correct class. Options are active, inactive and nothing else.

Problem: Kindly provide the recorded test outcome for the following molecule: CC(=O)N(C1CC(C)C(C#N)(C#N)C1(C#N)C#N)N(C)C (configuration not stated)
Solution: inactive

Problem: Recorded test outcome, item Cc1cccc(NS(=O)(=O)c2ccccc2)n1
Solution: inactive

Problem: // outcome(item) with item = COc1ccccc1N1CCN(Cc2cc(Br)c(O)c3ncccc23)CC1
Solution: active

Problem: Outcome logged for Cc1cc(C)cc(NC(=O)CSc2nnc(-c3cc(C)[nH]n3)n2N)c1 in this assay:
Solution: inactive

Problem: Hi, sorry to bother you, what did the test record for CCn1c(SCC(=O)NC2CCCCC2)nnc1-c1ccco1 ?
Solution: inactive

Problem: Entry CCCC(=O)N(C1CC(C)C(C#N)(C#N)C1(C#N)C#N)N(C)C (configuration not stated) : call = ?
Solution: active

Problem: Check the results log: what was the call for CCSc1nc2c(cnn2-c2ccc(C)cc2)c(=O)[nH]1 ?
Solution: inactive

Problem: What call does the record list for COc1ccccc1N1CCN(Cc2ccc(O)c3ncccc23)CC1 ?
Solution: inactive

Problem: Per the records of this test, what outcome belongs to CCc1ccc(N(CC(=O)NC)S(C)(=O)=O)cc1 ?
Solution: inactive

Problem: // return assay outcome for CCOC(=O)N1CCN(S(=O)(=O)c2ccc(C(=O)N(CCCN(C)C)c3nc4ccc(Cl)cc4s3)cc2)CC1
Solution: inactive

Problem: Given COc1cccc(NC(=O)CSc2nc3ccccc3n2C)c1 , state the outcome it received in this test.
Solution: inactive

Problem: For Cc1c(C(=O)O)[nH]c2c1C(=O)CC(c1ccc(C(C)(C)C)cc1)C2 (configuration not stated) , what call appears in the results of this test?
Solution: inactive

Problem: Field: outcome | Entry: CC(C)CNS(=O)(=O)c1ccc(CCC(=O)N2CCC(C(N)=O)CC2)cc1
Solution: inactive

Problem: Fill in: this test's call for CC(=O)OC[C@H]1O[C@@H](O/N=C/[C@@H](C)[C@H](OCc2ccccc2)C(C)C)[C@H](OC(C)=O)[C@@H](OC(C)=O)[C@@H]1OC(C)=O is ___
Solution: inactive

Problem: Query: recorded result category for O=S(=O)(Nc1ccccc1O)c1cccc2cccnc12 in this test
Solution: inactive

Problem: Which outcome was entered for the molecule O=[N+]([O-])c1ccccc1S(=O)(=O)Nc1ncccn1 in this test?
Solution: inactive

Problem: Please let me know the test result on file for Cc1ccc(NS(=O)(=O)c2cccc3cccnc23)c(Cl)c1 .
Solution: inactive

Problem: Which result was noted for this molecule in the test: O=[N+]([O-])c1cc(CN2CCN(c3ccccc3)CC2)c(O)c2ncccc12
Solution: inactive

Problem: Tell me the recorded outcome of this test for O=C(Nc1ccc(S(=O)(=O)Nc2ncccn2)cc1)c1ccc(S(=O)(=O)N2CCCC2)cc1 .
Solution: inactive

Problem: Dear all, I need the recorded test outcome for CC(=O)Nc1ccc(S(=O)(=O)Nc2cccc3cccnc23)cc1 , thank you.
Solution: inactive

Problem: Call for entry COc1cc(NS(=O)(=O)c2ccc(C)cc2)c2ncccc2c1 :
Solution: inactive

Problem: Give the logged outcome of this assay for the following molecule: O=C(O)c1ccccc1NS(=O)(=O)c1cccc2cccnc12
Solution: inactive

* * *

- system tested: Kappa-type opioid receptor (Homo sapiens)
- procedure details: kappa opioid receptor blockers – cell-based, luminescence, uHTS (AID 1778)
- assay setup: KOR beta-arrestin recruitment, antagonist mode; at 10 µM unless noted
Out of some 290,000 compounds screened, about 260 (0.09%) were called active. Cut-off read from the data, not from the text of the source: active = inhibition above about 50%; inactive = the rest. The sample as a whole holds a higher share of actives than the screen did. Potency and affinity values are given separately.
Choose the fitting class; nothing outside t (active), f (inactive) is accepted.

Problem: Could you please tell me the result logged for CCn1c(O)c(N=NC(=S)NCC2CCCO2)c2ccccc21 (stereo not given) in this assay?
Solution: t

Problem: Could you please tell me the result logged for CCCN1C(=O)/C(=C\C=C2/Sc3ccccc3N2CCO)SC1=S in this assay?
Solution: f

Problem: Look up the recorded call for CCCCN1C(=O)/C(=C/C=C2\N(C)c3ccccc3C2(C)C)SC1=S in this test.
Solution: f

Problem: What did the test return for CN1/C(=C\C=O)C(C)(C)c2ccccc21 ?
Solution: f

Problem: What classification did CCCN1C(=O)/C(=C\C=C2/Sc3ccccc3N2CC)SC1=S end up with in this test?
Solution: f
